- experimentalTarget: NRAS Q61R (Homo sapiens, UniProt P01111+P62937, Q61R)
- Sequence (P01111 whole entry Q61R): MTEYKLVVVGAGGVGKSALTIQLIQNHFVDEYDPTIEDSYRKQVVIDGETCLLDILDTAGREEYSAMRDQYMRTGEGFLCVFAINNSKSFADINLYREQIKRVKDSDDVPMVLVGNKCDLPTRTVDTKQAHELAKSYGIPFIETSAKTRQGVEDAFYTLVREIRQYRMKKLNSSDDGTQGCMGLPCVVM
- Sequence (P62937 whole entry): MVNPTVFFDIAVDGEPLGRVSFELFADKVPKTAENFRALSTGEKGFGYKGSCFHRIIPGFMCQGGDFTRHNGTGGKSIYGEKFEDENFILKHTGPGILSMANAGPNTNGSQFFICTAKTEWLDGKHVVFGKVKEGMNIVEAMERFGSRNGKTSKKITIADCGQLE
- assayExplanation: Disruption of BRAF RBD interaction with Ras (FRET / MOA assay, with Cyclophilin A)
- Type: biochemical
- testContext: NRAS Q61R; read-out: NRAS Q61R FRET data IC50
pIC50: −log10 of the molar value.
propertyMeasured: pIC50

1. CCn1c(-c2cccnc2[C@H](C)OC)c2c3cc(ccc31)-c1csc(n1)C[C@H](NC(=O)[C@H](C(C)C)N(C)C(=O)N1CCO[C@@H](C)C1)C(=O)N1CCC[C@H](N1)C(=O)OCC(C)(C)C2 (atropisomer, axis not shown) = 7.00 to 8.00

# returns recorded pIC50 (system: NRAS Q61R (Homo sapiens, UniProt P01111+P62937, Q61R)) for CCn1c(-c2cccnc2[C@H](C)OC)c2c3cc(ccc31)-c1csc(n1)C[C@H](NC(=O)[C@H](F)COC1CN(C(=O)C#CC(C)(C)N(C)C)C1)C(=O)N1CCCC(N1)C(=O)OCC(C)(C)C2 (stereo partly shown)
< 5.00

# returns recorded pIC50 (system: NRAS Q61R (Homo sapiens, UniProt P01111+P62937, Q61R)) for CCn1c(-c2cccnc2[C@H](C)OC)c2c3cc(ccc31)-c1csc(n1)C[C@H](NC(=O)[C@H](C(C)C)N(C)C(=O)N1CCOC[C@@H]1CN(C)C)C(=O)N1CCC[C@H](N1)C(=O)OCC(C)(C)C2
5.00 to 6.00

# returns recorded pIC50 (system: NRAS Q61R (Homo sapiens, UniProt P01111+P62937, Q61R)) for CCn1c(-c2cccnc2[C@H](C)OC)c2c3cc(ccc31)-c1csc(n1)C[C@H](NC(=O)[C@H](C(C)C)N(C)C(=O)N1C3CC1CN(C)C3)C(=O)N1CCC[C@H](N1)C(=O)OCC(C)(C)C2
6.00 to 7.00
